List of Euclidean distance values.
test system: OVCAR4; experiment: Euclidean distance of Cell Painting phenotypic profile (signed KS, 77 features) to DMSO centroid (dimensionless distance); 5 or 10 uM (library dependent); higher = stronger phenotypic change vs DMSO (phenoactivity); details: 48 h
Readout Name: Euclidean distance

[[record]]
molecule = "N[C@@H](CC(=O)N1CCn2c(nnc2C(F)(F)F)C1)Cc1cc(F)c(F)cc1F [Sitagliptin phosphate monohydrate]"
val = 0.956

[[record]]
molecule = "NC(=O)c1nc(F)cnc1O"
val = 0.894

[[record]]
molecule = "CC[C@@H]1C(=O)N(C)c2cnc(Nc3ccc(C(=O)NC4CCN(C)CC4)cc3OC)nc2N1C1CCCC1"
val = 3.25

[[record]]
molecule = "CCn1cc(C(=O)O)c(=O)c2cnc(N3CCNCC3)nc21"
val = 1.13

